- System: barnyardgrass
- assayNotes: Test B pre-/postemergence herbicide test
- Assay type: in vivo, Echinochloa crus-galli
- conditionsUsed: 125 g ai/ha; visual rating, scale 0 (no effect) to 100 (complete control); postemergence
propertyMeasured: Barnyardgrass plant response rating
The answer should be written as a number, with no unit following it.

{"molecule": "CCn1nc(C(C)(C)C)cc1C(=O)Nc1ccc(OC)c(OC)c1 [Compound 298]", "propertyMeasured": "Barnyardgrass plant response rating", "value": 10}
{"molecule": "CCn1nc(C2(C)CC2)cc1C(=O)Nc1cc(C(=O)N2CC=CC2)ccc1F [Compound 301]", "propertyMeasured": "Barnyardgrass plant response rating", "value": 20}

Query string: Dear colleague, I am looking for the recorded Barnyardgrass plant response rating of the following molecule: CC(=NO)c1cccc(NC(=O)c2cc(C(C)(C)C)n[nH]2)c1 [Compound 311]
Result string: 0

Query string: Dear colleague, I am looking for the recorded Barnyardgrass plant response rating of the following molecule: C#CCNC(=O)c1cncc(NC(=O)c2cc(C(C)(C)C)nn2CC)n1 [Compound 289]
Result string: 0

Query string: Dear colleague, I am looking for the recorded Barnyardgrass plant response rating of the following molecule: CCc1nn(C(C)C)nc1C(=O)Nc1cccc(C(=O)N2CCCCC2)c1 [Compound 385]
Result string: 0

Query string: Dear colleague, I am looking for the recorded Barnyardgrass plant response rating of the following molecule: CCc1nn(C(C)(C)CC)nc1C(=O)Nc1cc(C(=O)N2CC=CC2)ccc1F [Compound 371]
Result string: 0

Query string: Dear colleague, I am looking for the recorded Barnyardgrass plant response rating of the following molecule: C#CCNC(=O)c1ccc(F)c(NC(=O)c2nn(C(C)(C)C)nc2CC)c1 [Compound 389]
Result string: 0

Query string: Dear colleague, I am looking for the recorded Barnyardgrass plant response rating of the following molecule: CCNC(=O)c1ccc(F)c(NC(=O)c2cc(C3(C)CC3)nn2CC)c1 [Compound 300]
Result string: 30

Query string: Dear colleague, I am looking for the recorded Barnyardgrass plant response rating of the following molecule: CCc1nn(C(C)(C)C)nc1C(=O)Nc1cccc(C(=O)N(C)C)c1 [Compound 364]
Result string: 10

Query string: Dear colleague, I am looking for the recorded Barnyardgrass plant response rating of the following molecule: CCn1nc(C(C)(C)C)cc1C(=O)Nc1cc(OC(F)(F)F)ccc1F [Compound 338]
Result string: 20
